The reported measurements were obtained from ChEMBL document CHEMBL4368863.

# Study System: UniProt:Q7ZJM1
# Sequence (Q7ZJM1 whole entry): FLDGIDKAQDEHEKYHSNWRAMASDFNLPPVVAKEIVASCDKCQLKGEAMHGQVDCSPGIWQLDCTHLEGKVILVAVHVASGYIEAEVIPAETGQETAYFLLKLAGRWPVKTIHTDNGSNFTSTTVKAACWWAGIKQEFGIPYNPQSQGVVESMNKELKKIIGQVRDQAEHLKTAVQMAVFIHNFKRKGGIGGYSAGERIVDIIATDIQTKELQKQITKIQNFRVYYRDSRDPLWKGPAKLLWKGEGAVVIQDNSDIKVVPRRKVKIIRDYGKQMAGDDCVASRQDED
# Procedure Text: Inhibition of HIV1 subtype C recombinant integrase strand transfer activity preincubated for 45 mins with double-stranded biotinylated donor DNA followed by addition of double stranded FITC-labelled target DNA and measured after 60 mins relative to control
Give measured IC50 for each item. Keep answers brief.
Give your result in nM as a bare value.

# IC50 measured on UniProt:Q7ZJM1 for item O=C(NNC(=O)c1cc2cc(Cl)ccc2oc1=O)c1ccccc1O = 13

IC50 value, target or system UniProt:Q7ZJM1, for O=C(NNC(=O)c1cc2cc(Cl)ccc2oc1=O)c1cc(Cl)ccc1O : 41

Here O=C(NNC(=O)c1cc2cc(Br)ccc2oc1=O)c1ccccc1O was tested on UniProt:Q7ZJM1, and its IC50 came to 14

// compound COc1cccc2cc(C(=O)NNC(=O)c3cc(Cl)ccc3O)c(=O)oc12 , assay UniProt:Q7ZJM1, IC50 value: 23

Record CCOc1cccc2cc(C(=O)NNC(=O)c3cc(OC)ccc3O)c(=O)oc12 / UniProt:Q7ZJM1, IC50 recorded as 592

Bench note, UniProt:Q7ZJM1: COc1cccc2cc(C(=O)NNC(=O)c3ccccc3O)c(=O)oc12 , IC50 reads 47

For the compound COc1ccc(O)c(C(=O)NNC(=O)c2cc3ccccc3oc2=O)c1 , the measured IC50 on UniProt:Q7ZJM1 was 5800

The recorded IC50 with UniProt:Q7ZJM1 for COc1ccc(O)c(C(=O)NNC(=O)c2cc3cc(Cl)ccc3oc2=O)c1 was 605

The compound CCOc1cccc2cc(C(=O)NNC(=O)c3cc(Cl)ccc3O)c(=O)oc12 on UniProt:Q7ZJM1: IC50 was 31

Tested on UniProt:Q7ZJM1: O=C(NNC(=O)c1cc2cc(Br)ccc2oc1=O)c1cc(Cl)ccc1O . Observed IC50: 175

Hey, UniProt:Q7ZJM1 data for O=C(NNC(=O)c1cc2ccccc2oc1=O)c1ccccc1O : IC50 came out at 70

Given the compound CCOc1cccc2cc(C(=O)NNC(=O)c3ccccc3O)c(=O)oc12 and test system UniProt:Q7ZJM1, the measured IC50 is 104

Tested on UniProt:Q7ZJM1, the item COc1ccc(O)c(C(=O)NNC(=O)c2cc3cccc(OC)c3oc2=O)c1 showed IC50 equal to 901

Item O=C(NNC(=O)c1cc2ccccc2oc1=O)c1cc(Cl)ccc1O was tested on UniProt:Q7ZJM1; the reported IC50 is 33

Observed IC50 on UniProt:Q7ZJM1, entry COc1ccc(O)c(C(=O)NNC(=O)c2cc3cc(Br)ccc3oc2=O)c1 , equals 163
